These data points were gathered from paper PMC8138767.

Molecular target: SPOP–MATH (residues 28–166) (Homo sapiens)
Construct: glutathione S-transferase (GST) (N, cleaved yes); 6X His (N, cleaved yes); made in house; host or cells: E. coli BL-21(DE3)
Assay: Competition fluorescence anisotropy, displacement of f-Puc from SPOP–MATH
Format: binding
Conditions: competition FA; 40 nM f-Puc, 6 μM SPOP–MATH; 50 mM sodium phosphate pH 6.5, 50 mM NaCl, 5 mM DTT, 1% BSA, 0.01% Triton X-100; complete competitive binding model; ± standard deviation of three independent replicates (Table S4)
pKd: −log10 of the molar value. Where no end group is shown, it is not given here.
The entries below come with measured pKd values attached.
observedProperty: pKd

>  <substance>
ENLACDEVTSTTSSST [Puc, reference compound]

>  <observedProperty>
pKd

>  <qual>
=

>  <measured>
5.59

$$$$
>  <substance>
Ac-LSASPQPSSVAPRRPQEPR [Pdx1–SBM2]

>  <observedProperty>
pKd

>  <qual>
<

>  <measured>
3.22

$$$$
